# Study target: AMP-activated protein kinase, AMPK (Homo sapiens) (UniProt P54646+O43741+P54619+Q9UGJ0+Q9Y478+Q13131+Q9UGI9)
# Experiment description: AMP-dependent Kinase enzyme assay. An in vitro enzyme assay that detects ADP turnover that is directly proportional to AMPK activity. This uses naive AMPK that is activated during the assay with MK-8722
# Assay type: functional
# Design: scale not given: direction of the effect not stated beside the values
# Test parameters: 30 µM
The entries below are paired with their reported Percent Effect.
Write the number in % without appending the unit.

# count of solved cases: 5
molecule=CCN1CCN(S(=O)(=O)c2cc(C)c(Cl)cc2Cl)CC1 measured_endpoint="Percent Effect" reading=4.8
molecule="Cc1cnn(CC2CCCN2Cc2cc(=O)n3cccc(C)c3n2)c1 (stereo unspecified)" measured_endpoint="Percent Effect" reading=-3.73
molecule=CCOC(=O)c1sc2ccsc2c1CN measured_endpoint="Percent Effect" reading=-6.96
molecule=CS(=O)(=O)CCC(=O)NC1(c2cccc(Br)c2)CC1 measured_endpoint="Percent Effect" reading=-4.94
molecule=Cc1ccc2c(c1)C1(CC2)CCN(c2nncs2)CC1 measured_endpoint="Percent Effect" reading=5.45

// next entry
Report Percent Effect for O=c1[nH]c2c(c(=O)n1C1CCCCC1)CCC2Nc1ccccc1 (stereo unspecified) please.
-24.6
